# experimental target: UniProt C7BLE4
# test: Hemagglutination inhibition assay with PHL (papain-treated human RBCs O)
# Format: cell-based
# stated conditions: hemagglutination; MICbasic unit/(valency × MICligand), basic unit L-Fuc
readout kind: β L-Fuc (affinity improvement factor)
When you answer, write just the number.

[
  {
    "structure notation": "C[C@@H]1O[C@@H](CCn2cc(COc3c4cccc3Cc3cccc(c3OCc3cn(CC[C@@H]5O[C@@H](C)[C@@H](O)[C@@H](O)[C@@H]5O)nn3)Cc3cccc(c3OCc3cn(CC[C@@H]5O[C@@H](C)[C@@H](O)[C@@H](O)[C@@H]5O)nn3)Cc3cccc(c3OCc3cn(CC[C@@H]5O[C@@H](C)[C@@H](O)[C@@H](O)[C@@H]5O)nn3)C4)nn2)[C@@H](O)[C@H](O)[C@@H]1O",
    "β L-Fuc (affinity improvement factor)": 7.8
  },
  {
    "structure notation": "C[C@@H]1O[C@@H](CCn2cc(COCC(COCc3cn(CC[C@@H]4O[C@@H](C)[C@@H](O)[C@@H](O)[C@@H]4O)nn3)(COCc3cn(CC[C@@H]4O[C@@H](C)[C@@H](O)[C@@H](O)[C@@H]4O)nn3)COCC(COCc3cn(CC[C@@H]4O[C@@H](C)[C@@H](O)[C@@H](O)[C@@H]4O)nn3)(COCc3cn(CC[C@@H]4O[C@@H](C)[C@@H](O)[C@@H](O)[C@@H]4O)nn3)COCc3cn(CC[C@@H]4O[C@@H](C)[C@@H](O)[C@@H](O)[C@@H]4O)nn3)nn2)[C@@H](O)[C@H](O)[C@@H]1O",
    "β L-Fuc (affinity improvement factor)": 20.8
  }
]

Okay, next one:
Item C[C@@H]1O[C@@H](CCn2cc(COc3c4cc(C(C)(C)C)cc3Cc3cc(C(C)(C)C)cc(c3OCc3cn(CC[C@@H]5O[C@@H](C)[C@@H](O)[C@@H](O)[C@@H]5O)nn3)Cc3cc(C(C)(C)C)cc(c3OCc3cn(CC[C@@H]5O[C@@H](C)[C@@H](O)[C@@H](O)[C@@H]5O)nn3)Cc3cc(C(C)(C)C)cc(c3OCc3cn(CC[C@@H]5O[C@@H](C)[C@@H](O)[C@@H](O)[C@@H]5O)nn3)C4)nn2)[C@@H](O)[C@H](O)[C@@H]1O has what recorded β L-Fuc (affinity improvement factor)?
7.8

###

# experimental target: PHL (Photorhabdus asymbiotica)
# Sequence (C7BLE4 entry or part of it): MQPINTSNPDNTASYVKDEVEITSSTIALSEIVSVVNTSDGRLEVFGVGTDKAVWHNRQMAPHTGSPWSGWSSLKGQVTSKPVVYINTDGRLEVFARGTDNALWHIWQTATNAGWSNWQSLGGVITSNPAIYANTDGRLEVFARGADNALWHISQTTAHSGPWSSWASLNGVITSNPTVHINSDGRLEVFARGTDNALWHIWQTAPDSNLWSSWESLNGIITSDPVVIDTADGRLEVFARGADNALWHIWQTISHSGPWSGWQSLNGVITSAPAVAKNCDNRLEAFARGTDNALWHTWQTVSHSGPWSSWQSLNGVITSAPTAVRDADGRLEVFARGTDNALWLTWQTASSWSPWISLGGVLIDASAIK
# test: Hemagglutination inhibition assay with PHL (papain-treated human RBCs O)
# Format: cell-based
# stated conditions: hemagglutination; MIC L-fucose / MIC ligand
readout kind: PotencyL-Fuc
Reply: number alone, nothing else.

Here's what some known entries look like.
[
  {
    "molecule": "C[C@@H]1OC(CCCCC2O[C@@H](C)[C@@H](O)[C@@H](O)[C@@H]2O)[C@@H](O)[C@H](O)[C@@H]1O (some centres unmarked) [Difucoside 5, 1,4-bis(fucopyranosyl)butane]",
    "experimental target": "PHL (Photorhabdus asymbiotica)",
    "value observed": 15.6
  },
  {
    "molecule": "CO[C@@H]1O[C@@H](C)[C@@H](O)[C@@H](O)[C@@H]1O [α-Me-Fuc, methyl α-L-fucopyranoside, reference compound]",
    "experimental target": "PHL (Photorhabdus asymbiotica)",
    "value observed": 7.8
  },
  {
    "molecule": "C[C@@H]1O[C@@H](CCn2cc(COCC(COCc3cn(CC[C@@H]4O[C@@H](C)[C@@H](O)[C@@H](O)[C@@H]4O)nn3)(COCc3cn(CC[C@@H]4O[C@@H](C)[C@@H](O)[C@@H](O)[C@@H]4O)nn3)COCC(COCc3cn(CC[C@@H]4O[C@@H](C)[C@@H](O)[C@@H](O)[C@@H]4O)nn3)(COCc3cn(CC[C@@H]4O[C@@H](C)[C@@H](O)[C@@H](O)[C@@H]4O)nn3)COCc3cn(CC[C@@H]4O[C@@H](C)[C@@H](O)[C@@H](O)[C@@H]4O)nn3)nn2)[C@@H](O)[C@H](O)[C@@H]1O",
    "experimental target": "PHL (Photorhabdus asymbiotica)",
    "value observed": 125
  },
  {
    "molecule": "C[C@@H]1O[C@@H](CCN=[N+]=[N-])[C@@H](O)[C@H](O)[C@@H]1O [Azide 1]",
    "experimental target": "PHL (Photorhabdus asymbiotica)",
    "value observed": 15.6
  }
]

What does the record list as PotencyL-Fuc for C[C@@H]1O[C@@H](CCn2cc(COc3c4cc(C(C)(C)C)cc3Cc3cc(C(C)(C)C)cc(c3OCc3cn(CC[C@@H]5O[C@@H](C)[C@@H](O)[C@@H](O)[C@@H]5O)nn3)Cc3cc(C(C)(C)C)cc(c3OCc3cn(CC[C@@H]5O[C@@H](C)[C@@H](O)[C@@H](O)[C@@H]5O)nn3)Cc3cc(C(C)(C)C)cc(c3OCc3cn(CC[C@@H]5O[C@@H](C)[C@@H](O)[C@@H](O)[C@@H]5O)nn3)C4)nn2)[C@@H](O)[C@H](O)[C@@H]1O ?
31.3

Now consider C[C@H](O)[C@@H](O)[C@@H](O)[C@H](O)C=O [L -Fuc, L-fucose, reference compound] .
1

What do we get for C[C@@H]1O[C@@H](CCn2cc(COCC(COCc3cn(CC[C@@H]4O[C@@H](C)[C@@H](O)[C@@H](O)[C@@H]4O)nn3)(COCc3cn(CC[C@@H]4O[C@@H](C)[C@@H](O)[C@@H](O)[C@@H]4O)nn3)COCc3cn(CC[C@@H]4O[C@@H](C)[C@@H](O)[C@@H](O)[C@@H]4O)nn3)nn2)[C@@H](O)[C@H](O)[C@@H]1O ?
62.5

Repeat for the following molecule: C[C@@H]1O[C@@H](CCn2cc(COc3c4cccc3Cc3cccc(c3OCc3cn(CC[C@@H]5O[C@@H](C)[C@@H](O)[C@@H](O)[C@@H]5O)nn3)Cc3cccc(c3OCc3cn(CC[C@@H]5O[C@@H](C)[C@@H](O)[C@@H](O)[C@@H]5O)nn3)Cc3cccc(c3OCc3cn(CC[C@@H]5O[C@@H](C)[C@@H](O)[C@@H](O)[C@@H]5O)nn3)C4)nn2)[C@@H](O)[C@H](O)[C@@H]1O
31.3
